# System: HL-60
# experiment_description: NCI tumour cell line growth inhibition, 48 h
The source made the active and inactive calls. Cut-off read from the data, not from the text of the source: active = GI50 up to about 1.1 µM and inactive = higher.
Pick one: active, inactive

# count of solved cases: 3
* O=c1nc2sc3ccc4ccccc4c3n2nc1-c1ccccc1 | inactive
* O=C(NO)c1ccc(C(=O)NO)cc1 | inactive
* c1ccc2c(c1)nnn2CN1CCOCC1 | inactive

Now, please, on to the next compound.
In this assay, the call recorded for CSC(=S)N/N=C/c1nccc2ccccc12 was what?
active

----------
# Test system: NCI-H460
# experiment_description: NCI tumour cell line growth inhibition, 48 h
Activity calls are given as the source filed them. No stated cut-off is given here; in the data, active = GI50 up to about 1.1 µM and inactive = higher.
Pick one: T = active, F = inactive

# count of solved cases: 8
* Cc1ccc(S(=O)(=O)N2CCCSCCSCCCSCC2)cc1 | F
* C=C(C)C1CC2=C(O1)C(=O)c1ccccc1C2=O (stereo not drawn) [DEHYDROISO-ALPHA-LAPACHONE] | F
* CN(C)Cc1nsc(N(C)C)n1 | F
* O=c1c2ccccc2[nH]c2cc(O)cc(O)c12 | F
* COc1ccc(CNc2ccn(C3OC(CO)C(O)C3O)c(=O)n2)cc1 (centres undefined) | F
* Cc1c(/N=N/c2ccc(Cl)cc2)c(-c2ccccc2)n(C2OC(CO)C(O)C(O)C2O)c(=S)c1C#N (centres undefined) | F
* Cc1ccc2nc(Cl)c(/C=N/N3C(=O)/C(=C/c4ccc(N(C)C)cc4)N=C3c3ccccc3)cc2c1 | F
* COc1ccc2nc3cc(Cl)ccc3c(NCCCN3CCN(CCCNc4ccc5nnn6c7ccccc7c(=O)c4c56)CC3)c2c1 | T

In this assay, the call recorded for COC(=O)CSC(=S)Nc1nnc(NC(=S)SCOC(C)=O)n1C(=S)SCC(=O)OC was what?
F

In this assay, the call recorded for O=c1nc2sc3ccc4ccccc4c3n2nc1-c1ccccc1 was what?
F

In this assay, the call recorded for COc1ccc2c3c1O[C@H](c1ccc(O)cc1)[C@H]3[N+](C)(C)CC2 was what?
F

In this assay, the call recorded for COC(=O)C1=C(C(=O)OC)C2C=CC1C1C(Cl)=C(Cl)C21 (centres undefined) was what?
F
